- TARGET_OF_ASSAY: human dopamine D2Long (D2L) receptors (Homo sapiens, UniProt P14416)
- Sequence (P14416 whole entry): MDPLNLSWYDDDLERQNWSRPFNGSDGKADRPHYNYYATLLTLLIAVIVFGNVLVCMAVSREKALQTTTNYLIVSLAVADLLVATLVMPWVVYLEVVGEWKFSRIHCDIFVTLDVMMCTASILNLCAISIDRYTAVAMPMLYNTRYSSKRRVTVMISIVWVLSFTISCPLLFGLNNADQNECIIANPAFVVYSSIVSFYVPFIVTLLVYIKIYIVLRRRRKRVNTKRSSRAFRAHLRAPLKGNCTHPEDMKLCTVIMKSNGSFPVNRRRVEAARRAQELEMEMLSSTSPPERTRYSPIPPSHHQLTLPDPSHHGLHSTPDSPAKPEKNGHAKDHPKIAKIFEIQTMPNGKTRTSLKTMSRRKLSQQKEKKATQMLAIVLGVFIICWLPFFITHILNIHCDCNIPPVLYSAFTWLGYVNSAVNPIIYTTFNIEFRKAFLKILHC
Counter-ions that a name gives are not always drawn.
Could you please report measured Ki for the items listed next?

Solved cases (3 shown):
COMPOUND	REPORTED_RESULT
Cc1ccc2c(c1O)C[C@@H](C1CCN(Cc3csc4ccccc34)CC1)O[C@H]2CN [Example 87, dihydrochloride]	23.8 nM
Cc1ccc2c(c1O)C[C@@H](C1CCN(S(=O)(=O)N(C)C)CC1)O[C@H]2CN [Example 164, hydrochloride]	≥ 100000 nM
Cc1ccc2c(c1O)C[C@@H](C1CCN(Cc3ccc(C(F)(F)F)c(F)c3)CC1)O[C@H]2CN [Example 82, dihydrochloride]	≥ 10000 nM

For the 7 compounds below, give their Ki values.
1. Cc1ccc2c(c1O)C[C@@H](C1CCN(S(=O)(=O)Cc3ccc(Cl)c(Cl)c3)CC1)O[C@H]2CN [Example 160, hydrochloride]
2. Cc1ccc2c(c1O)C[C@@H](C1CCN(Cc3ccc(Cl)c(C(F)(F)F)c3)CC1)O[C@H]2CN [Example 78, dihydrochloride]
3. Cc1ccc2c(c1O)C[C@@H](C1CCN(CC(C)(C)C)CC1)O[C@H]2CN [Example 42, dihydrochloride]
4. Cc1ccc2c(c1O)C[C@@H](C1CCN(CCC(C)NC(=O)c3ccc(F)cc3)CC1)O[C@H]2CN (stereo partly shown) [Example 22, dihydrochloride]
5. Cc1ccc2c(c1O)C[C@@H](C1CCN(Cc3ccccc3Cl)CC1)O[C@H]2CN [Example 35, dihydrobromide]
6. CCCN(C)C[C@@H]1O[C@H](C2CCN(Cc3ccccc3)CC2)Cc2c1ccc(C)c2O [Example 175]
7. Cc1ccc2c(c1O)C[C@@H](C1CCN(CC(c3ccccc3)c3ccccc3)CC1)O[C@H]2CN [Example 28, dihydrobromide]

Ans.
≥ 100000 nM
197 nM
≥ 10000 nM
564 nM
96 nM
≥ 10000 nM
180 nM

For the 3 compounds below, give their Ki values.
1. CCNC[C@@H]1O[C@H](C2CCN(Cc3ccccc3)CC2)Cc2c1ccc(C)c2O [Example 172]
2. Cc1ccc2c(c1O)C[C@@H](C1CCN(Cc3ccnc4ccccc34)CC1)O[C@H]2CN [Example 57, dihydrochloride]
3. Cc1ccc2c(c1O)C[C@@H](C1CCN(CCC(C)NC(=O)c3ccc([N+](=O)[O-])cc3)CC1)O[C@H]2CN (stereo partly shown) [Example 24, dihydrochloride]

Ans.
["279 nM", "≥ 10000 nM", "638 nM"]

====

- TARGET_OF_ASSAY: human dopamine D1 receptor (Homo sapiens, UniProt P21728)
- Construct: A 1.4 Kb Hind III to Xho I fragment was subcloned into the vector pMMLV; expressed in transfected cells; host or cells: CHO cells, clone CHO-D1M#9 (plasmid pHD1MMLV), membranes
- Sequence (P21728 whole entry, the tested form may be a part): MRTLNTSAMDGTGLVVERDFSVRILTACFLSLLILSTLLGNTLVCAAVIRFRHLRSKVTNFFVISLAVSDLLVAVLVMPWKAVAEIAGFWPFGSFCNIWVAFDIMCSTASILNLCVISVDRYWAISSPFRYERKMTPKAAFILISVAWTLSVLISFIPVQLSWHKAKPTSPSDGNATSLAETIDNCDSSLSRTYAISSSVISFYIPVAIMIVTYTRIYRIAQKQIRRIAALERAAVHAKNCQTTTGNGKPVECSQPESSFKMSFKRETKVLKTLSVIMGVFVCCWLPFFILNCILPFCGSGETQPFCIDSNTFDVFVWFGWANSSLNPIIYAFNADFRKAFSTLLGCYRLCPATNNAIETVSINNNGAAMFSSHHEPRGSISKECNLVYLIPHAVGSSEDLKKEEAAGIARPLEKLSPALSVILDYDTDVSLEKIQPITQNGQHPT
- ASSAY_DETAILS: [3H]-SCH-23390 binding to cloned human dopamine D1 receptors (CHO cell membranes)
- RUN_PARAMETERS: competitive binding, [3H]-SCH-23390, cloned human D1 in CHO membranes; read-out: D1 affinity Ki
Where a name gives a salt, the structure may show the parent alone.
Lab note: cut-off is 50 nM. Strictly less in Ki is condition met. Exactly 50 nM or more is condition not met.

COMPOUND	TARGET_OF_ASSAY	QUALITATIVE_LABEL
Cc1ccc2c(c1O)C[C@@H](C1CCN(Cc3cc(C(F)(F)F)ccc3C(F)(F)F)CC1)O[C@H]2CN [Example 76, dihydrochloride]	human dopamine D1 receptor (Homo sapiens, UniProt P21728)	condition not met
Cc1ccc2c(c1O)C[C@@H](C1CCN(Cc3ccccc3Cl)CC1)O[C@H]2CN [Example 35, dihydrobromide]	human dopamine D1 receptor (Homo sapiens, UniProt P21728)	condition met
CCCN(CCC)C[C@@H]1O[C@H](C2CCN(Cc3ccccc3)CC2)Cc2c1ccc(C)c2O [Example 188, dihydrochloride]	human dopamine D1 receptor (Homo sapiens, UniProt P21728)	condition not met
Cc1ccc2c(c1O)C[C@@H](C1CCN(CCC(C)NC(=O)c3ccc4ccccc4c3)CC1)O[C@H]2CN (stereo partly drawn) [Example 19, dihydrochloride]	human dopamine D1 receptor (Homo sapiens, UniProt P21728)	condition not met
Cc1ccc2c(c1O)C[C@@H](C1CCN(Cc3cnc4ccccc4c3)CC1)O[C@H]2CN [Example 56, dihydrochloride]	human dopamine D1 receptor (Homo sapiens, UniProt P21728)	condition met

Qu. Consider the compound Cc1ccc2c(c1O)C[C@@H](C1CCN(Cc3ccc4ccccc4c3)CC1)O[C@H]2CN [Example 45, dihydrochloride] . Is its Ki strictly less than 50 nM?
Ans. condition not met

Qu. Consider the compound Cc1ccc2c(c1O)C[C@@H](C1CCN(Cc3ccc4ccccc4n3)CC1)O[C@H]2CN [Example 55, dihydrochloride] . Is its Ki strictly less than 50 nM?
Ans. condition not met

Qu. Consider the compound Cc1ccc2c(c1O)C[C@@H](C1CCN(S(=O)(=O)c3ccc4ccccc4c3)CC1)O[C@H]2CN [Example 147, hydrochloride] . Is its Ki strictly less than 50 nM?
Ans. condition not met

Qu. Consider the compound Cc1ccc2c(c1O)C[C@@H](C1CCN(Cc3cccc(F)c3)CC1)O[C@H]2CN [Example 69, dihydrochloride] . Is its Ki strictly less than 50 nM?
Ans. condition met

Qu. Consider the compound CNC[C@@H]1O[C@H](C2CCN(C)CC2)Cc2c1ccc(C)c2O [Example 102, dihydrobromide] . Is its Ki strictly less than 50 nM?
Ans. condition not met

Qu. Consider the compound Cc1ccc2c(c1O)C[C@@H](C1CCN(S(=O)(=O)C[C@]34CC[C@H](CC3=O)C4(C)C)CC1)O[C@H]2CN [Example 163, hydrochloride] . Is its Ki strictly less than 50 nM?
Ans. condition not met

Qu. Consider the compound Cc1ccc2c(c1O)C[C@@H](C1CCN(C(=O)N(C)C)CC1)O[C@H]2CN [Example 132, hydrochloride] . Is its Ki strictly less than 50 nM?
Ans. condition not met

Qu. Consider the compound Cc1ccc2c(c1O)C[C@@H](C1CCN(Cc3c[nH]c4ccccc34)CC1)O[C@H]2CN [Example 89, dihydrochloride] . Is its Ki strictly less than 50 nM?
Ans. condition met

Qu. Consider the compound Cc1ccc2c(c1O)C[C@@H](C1CCN(S(=O)(=O)c3ccccc3C(F)(F)F)CC1)O[C@H]2CN [Example 143, hydrochloride] . Is its Ki strictly less than 50 nM?
Ans. condition not met
